Hello, the source for this data is paper PMC7949036, in case you need it.

# study system: the molecule itself
# assay protocol: SEC; Superdex 200 10/300GL, 10 mM HEPES pH 7.3, 100 mM NaCl; apparent molecular weight estimated from protein standards; native purified protein
quantity kind: binding result

1) pZIP4-ECD R87C variant (domain or fragment, Pteropus alecto, UniProt L5KLU7 36-322, looked up, ZIP4 of Pteropus alecto, extracellular domain, residues 36-322 of ELK11751, with R87C (equivalent to R95C of human ZIP4); source: E. coli Origami B(DE3) pLysS, purified (Ni-NTA, Mono-Q, SEC); not shown: His6, N-terminal, cleaved) SGQGALDRVALGGLLNTLAARVHCTSGPCGKCLSVDDLLALGRPEEPGHLACLSAAAALYLSDPEGTCEDIRAGRWASRADHLLALLEGPKALAPGLSRLLQRIQAQTTGQPSAGEACVDPPQLLREAGVAGAPGSPGPVLATLLEHVGRGSCFHTLPTPQYFVDFVFQQSHGNTPNISVAELAALMQRLGVGGVTETHSDHHHQEKRVNRQGPTPLTAPNSSSDTWDTVCLSARDVMAVYGLSEQTGVTPEAWAQLSPALLQQQLSGACSPQPSHPAQNQLSQAEK : binds
